# Species: Oryctolagus cuniculus
# note: boundary value 5 mmHg maps to f; Delta IOP below it maps to t

1. CN(C)CCOCCOC(=O)c1ccc(S(=O)(=O)Nc2nnc(S(N)(=O)=O)s2)cc1 : t
2. CCN(CC)CCNC(=O)c1cccc(S(=O)(=O)Nc2nnc(S(N)(=O)=O)s2)c1 : f
3. CN(C)CCOC(=O)c1ccc(S(=O)(=O)Nc2nnc(S(N)(=O)=O)s2)cc1 : t
4. NS(=O)(=O)c1nnc(NS(=O)(=O)c2cccc(C(=O)OCCO)c2)s1 : f
5. CC(CN(C)C)OC(=O)c1ccc(S(=O)(=O)Nc2nnc(S(N)(=O)=O)s2)cc1 (centres undefined) : t
6. COCCOC(=O)c1cccc(S(=O)(=O)Nc2nnc(S(N)(=O)=O)s2)c1 : f
7. CN(C)CCOC(=O)c1cccc(S(=O)(=O)Nc2nnc(S(N)(=O)=O)s2)c1 : t
8. CC(CN(C)C)OC(=O)c1cccc(S(=O)(=O)Nc2nnc(S(N)(=O)=O)s2)c1 (centres undefined) : t
